Ref: ChEMBL document CHEMBL4229498

Heads up, these compounds all have Ki values measured for Cannabinoid receptor 1 (Homo sapiens).

Here are 2 compounds together with their reported answers.
# Smi, Target under test, Endpoint label, Value measured
data = [
    ("O=C(Nc1ccc(F)cc1F)N1CCN(c2ncnc3c2nc(-c2ccccc2Cl)n3-c2ccc(Cl)cc2)CC1", "Cannabinoid receptor 1 (Homo sapiens)", "Ki", "5 nM"),
    ("O=S(=O)(C1CC1)N1CCN(c2ncnc3c2nc(-c2ccccc2Cl)n3-c2ccc(Cl)cc2)CC1", "Cannabinoid receptor 1 (Homo sapiens)", "Ki", "5 nM"),
]

Now take the following compound into account.
Answer briefly: Ki recorded on Cannabinoid receptor 1 (Homo sapiens) for CC(C)(C)OC(=O)N1CCN(c2ncnc3c2nc(-c2ccccc2Cl)n3-c2ccc(Cl)cc2)CC1
Sequence (P21554 whole entry): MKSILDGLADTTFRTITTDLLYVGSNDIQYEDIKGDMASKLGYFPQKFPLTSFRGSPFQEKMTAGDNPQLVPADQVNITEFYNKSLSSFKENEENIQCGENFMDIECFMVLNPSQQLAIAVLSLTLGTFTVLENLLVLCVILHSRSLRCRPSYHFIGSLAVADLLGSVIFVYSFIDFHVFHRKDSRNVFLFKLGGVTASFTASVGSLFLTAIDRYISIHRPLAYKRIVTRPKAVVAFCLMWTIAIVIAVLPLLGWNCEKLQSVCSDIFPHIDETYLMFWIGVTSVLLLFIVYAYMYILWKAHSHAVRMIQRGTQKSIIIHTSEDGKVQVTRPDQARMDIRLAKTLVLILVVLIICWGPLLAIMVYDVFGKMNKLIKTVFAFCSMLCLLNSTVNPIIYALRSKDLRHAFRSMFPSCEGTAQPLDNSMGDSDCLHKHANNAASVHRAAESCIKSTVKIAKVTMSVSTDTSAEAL
5 nM
